System: GSDME
Assay: Western blot of GSDME activation
Type: cell-based, human
Settings: HepG2 and SK-Hep1 cells
assay metric: GSDME activation / cleavage (western blotting)

>>> print(df.to_string())
                                   compound                  result
0  NCCCn1cc(/C=C2\S/C(=N\c3ccc(N4CCOCC4)cc3)N(Cc3ccc(F)cc3)C2=O)c2ccccc21 [Tc1]  did not activate GSDME
1  CC[C@H](C)[C@H](N)C(=O)NCCCn1cc(/C=C2\SC(=O)N(Cc3ccc(F)cc3)C2=O)c2cc(Br)ccc21 [Tb7]  did not activate GSDME
2  O=C(NCCCn1cc(/C=C2\S/C(=N\c3ccc(N4CCOCC4)cc3)N(Cc3ccc(F)cc3)C2=O)c2ccccc21)[C@@H]1CCCN1 [Tc4]  did not activate GSDME
